- test_system: α7 nAChR subtype (Rattus norvegicus)
- Construct: The hippocampus was removed and placed in 10 volumes (weight:volume) of ice-cold preparative buffer; from tissue; host or cells: rat hippocampus membranes (female Sprague-Dawley)
- Sequence (Q05941 23-502): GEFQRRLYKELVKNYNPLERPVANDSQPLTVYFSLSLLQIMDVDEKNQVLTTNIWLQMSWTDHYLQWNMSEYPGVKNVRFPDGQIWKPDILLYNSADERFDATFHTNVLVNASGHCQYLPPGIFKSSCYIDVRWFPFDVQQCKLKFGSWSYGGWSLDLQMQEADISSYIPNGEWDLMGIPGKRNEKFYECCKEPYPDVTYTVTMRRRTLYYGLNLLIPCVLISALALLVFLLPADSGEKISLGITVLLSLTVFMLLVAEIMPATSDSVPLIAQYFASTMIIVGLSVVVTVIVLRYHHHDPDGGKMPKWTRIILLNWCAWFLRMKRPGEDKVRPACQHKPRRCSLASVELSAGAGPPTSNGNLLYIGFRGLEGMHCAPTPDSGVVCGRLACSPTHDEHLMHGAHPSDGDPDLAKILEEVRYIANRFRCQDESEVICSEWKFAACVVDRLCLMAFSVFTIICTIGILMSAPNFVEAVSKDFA
- procedure_text: Radioligand binding, [3H]MLA, rat hippocampus membranes
- applied_conditions: α7 Ki
readout: pKi
Note: pKi values are expressed as the negative base-10 logarithm of concentration in M.

Sample answers from the record:
# compound, test_system, observed_measurement
records = [
    ("O=C([C@@H]1C[C@H]1F)N1CC2CNCC(C2)C1 [Example 10-88]", "α7 nAChR subtype (Rattus norvegicus)", 6.62),
    ("O=C([C@@H]1C[C@@H]1F)N1CC2CNCC(C2)C1 [Example 10-89]", "α7 nAChR subtype (Rattus norvegicus)", 7.13),
    ("O=C([C@H]1C[C@@H]1F)N1CC2CNCC(C2)C1 [Example 10-79]", "α7 nAChR subtype (Rattus norvegicus)", 6.02),
    ("O=C([C@H]1C[C@@H]1F)N1CC2CNCC2C1 (stereo partly shown) [Example 10-36]", "α7 nAChR subtype (Rattus norvegicus)", 4.60),
]

q: State the recorded pKi for this entry: O=C([C@H]1C[C@H]1F)N1CC2CNCC(C2)C1 [Example 10-92]
a: 6.44

q: Note, next up: O=C([C@H]1C[C@@H]1F)N1CC2CNCC(C2)C1 [Example 10-87]
a: 6.23

q: Note, next up: O=C([C@H]1C[C@H]1F)N1CC2CNCC(C2)C1 [Example 10-78]
a: 6.40
